System: rat
Type: in vivo
TEST CONDITIONS: Table 1, power ratio related to the basic product taken as unit standard, oral administration
Please provide measured GASTROINT. TOLERABILITY for the entries that follow.
Please reply with the value in numeric form only.

Jot down GASTROINT. TOLERABILITY (rat) of CC(C(=O)OCCCCOC(=O)C(C)c1ccc(-c2ccccc2)c(F)c1)c1ccc(-c2ccccc2)c(F)c1 (stereo not shown) .
0.3

Report GASTROINT. TOLERABILITY on rat for this entry: O=C(O)Cc1ccccc1Nc1c(Cl)cccc1Cl [Diclofenac, reference compound]
1

GET GASTROINT. TOLERABILITY where system = rat and item = CC(C(=O)O)c1cccc(C(=O)c2ccccc2)c1 (stereo not shown) [Ketoprofen, reference compound]
1

Report value: GASTROINT. TOLERABILITY, system: rat, compound: CS(=O)(=O)Nc1ccc([N+](=O)[O-])cc1Oc1ccccc1 [Nimesulide, reference compound]
1

----------
Please provide measured GASTROINT. TOLERABILITY for the entries that follow.
Tested on: rat
Assay type: in vivo
TEST CONDITIONS: Table 1, power ratio related to the basic product taken as unit standard, oral administration
Hey, just send me the number, nothing else.

# return recorded GASTROINT. TOLERABILITY for input `CS(=O)(=O)N(C(=O)CCC(=O)N(c1ccc([N+](=O)[O-])cc1Oc1ccccc1)S(C)(=O)=O)c1ccc([N+](=O)[O-])cc1Oc1ccccc1`
0.8

Look up and report measured GASTROINT. TOLERABILITY for this entry: `O=C(Cc1ccccc1Nc1c(Cl)cccc1Cl)OCCCCOC(=O)Cc1ccccc1Nc1c(Cl)cccc1Cl`
0.1

Provide measured GASTROINT. TOLERABILITY value, entry: CC(C(=O)OCCCCOC(=O)C(C)c1cccc(C(=O)c2ccccc2)c1)c1cccc(C(=O)c2ccccc2)c1 (stereo not drawn)
0.3
